Biological target: human TLR7 (Homo sapiens, UniProt Q9NYK1)
Sequence (Q9NYK1 27-1049): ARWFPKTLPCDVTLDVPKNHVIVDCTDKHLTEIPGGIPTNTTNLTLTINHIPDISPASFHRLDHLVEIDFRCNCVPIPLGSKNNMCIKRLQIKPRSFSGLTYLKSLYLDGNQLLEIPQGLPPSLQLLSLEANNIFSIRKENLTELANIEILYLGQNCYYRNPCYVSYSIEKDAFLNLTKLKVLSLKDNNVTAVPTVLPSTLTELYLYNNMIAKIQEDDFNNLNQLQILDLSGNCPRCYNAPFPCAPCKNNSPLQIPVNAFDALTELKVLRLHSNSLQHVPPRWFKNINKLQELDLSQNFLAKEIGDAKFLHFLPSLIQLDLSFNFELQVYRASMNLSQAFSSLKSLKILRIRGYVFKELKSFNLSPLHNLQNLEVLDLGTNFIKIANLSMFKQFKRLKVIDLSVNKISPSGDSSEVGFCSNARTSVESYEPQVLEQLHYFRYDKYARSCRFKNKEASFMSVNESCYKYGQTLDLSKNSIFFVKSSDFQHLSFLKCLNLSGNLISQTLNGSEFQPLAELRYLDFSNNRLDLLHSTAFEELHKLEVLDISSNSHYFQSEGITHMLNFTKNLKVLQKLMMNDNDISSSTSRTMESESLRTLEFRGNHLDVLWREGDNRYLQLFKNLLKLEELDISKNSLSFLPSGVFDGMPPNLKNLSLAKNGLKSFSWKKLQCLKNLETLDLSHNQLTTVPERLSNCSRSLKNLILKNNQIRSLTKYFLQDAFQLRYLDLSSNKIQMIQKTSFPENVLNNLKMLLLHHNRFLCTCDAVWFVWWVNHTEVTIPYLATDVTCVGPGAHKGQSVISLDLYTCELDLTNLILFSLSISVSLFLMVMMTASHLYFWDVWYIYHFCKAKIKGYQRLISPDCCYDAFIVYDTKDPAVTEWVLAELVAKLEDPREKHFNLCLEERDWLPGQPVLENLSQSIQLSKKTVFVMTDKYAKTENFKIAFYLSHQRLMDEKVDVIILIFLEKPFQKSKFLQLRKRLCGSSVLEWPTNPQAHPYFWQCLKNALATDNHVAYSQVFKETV
Experiment: TLR7 inhibition reporter assay (HEK-Blue SEAP reporter)
Conditions: HEK-Blue cells overexpressing human TLR7; gardiquimod 7.5 μM; 22 hour incubation
Description: TLR7/8/9 Inhibition Reporter Assays HEK-Blue™-cells (Invivogen) overexpressing human TLR7, TLR8 or TLR9 receptors were used for screening inhibitors of these receptors using an inducible SEAP (secreted embryonic alkaline phosphatase) reporter gene under the control of the IFN-β minimal promoter fused to five NF-κB and AP-1-binding sites. […]
Heads up, the class ranges for IC50 are I: < 0.07 µM; II: ≥ 0.07 µM and < 0.5 µM; III: ≥ 0.5 µM

Task: Any idea which band COc1ccc(-c2[nH]c3ccc(N4CCC(C5CCN(CCC(F)(F)F)CC5)CC4)cc3c2C(C)C)cc1OC is in?
Result: III

Task: What about this molecule? COc1ccc(-c2[nH]c3ccc(N4CCC(OC5CCN(C)CC5)CC4)cc3c2C(C)C)cc1OC
Result: II

Task: What about this molecule? Cc1cc(-c2[nH]c3ccc(N4CCC(N(C)CCN)C4=O)cc3c2C(C)C)ccn1 (stereo not shown)
Result: II

Task: What about this molecule? CCc1c(-c2ccnc3[nH]ncc23)[nH]c2ccc(N3CCC(OC4CCN(C(C)C)CC4)CC3)cc12
Result: III

Task: What about this molecule? CCc1c(-c2ccnc3c2ccn3C)[nH]c2ccc(N3CCN(C4CCN(C(C)C)CC4)CC3)cc12
Result: III

Task: What about this molecule? COc1ccc(-c2[nH]c3ccc(N4CCC(N5CCOCC5)CC4)cc3c2C(C)C)cc1OC
Result: I

Task: What about this molecule? Cc1cc(-c2[nH]c3ccc(N4CCC(OCCN(C)C)C4=O)cc3c2C(C)C)ccn1 (stereo not shown)
Result: III

Task: What about this molecule? CNCCN1CCN(c2ccc3[nH]c(-c4ccc(OC)c(OC)c4)c(C(C)C)c3c2)CC1
Result: I

Task: What about this molecule? Cc1c(-c2ccnc3[nH]ccc23)[nH]c2ccc(N3CCN(C4CCN(C)CC4)CC3)cc12
Result: III

Task: What about this molecule? COc1ccc(-c2[nH]c3ccc(N4CCN(C5CCN(C)CC5)CC4)cc3c2C)cc1OC
Result: III

Task: What about this molecule? COc1ccc(-c2[nH]c3ccc(NC4CCC(NC5CCN(C)CC5)CC4)cc3c2C(C)C)cc1OC (single isomer, unassigned) [Example 41]
Result: II

Task: What about this molecule? CCN1CCN(C2CCC(Nc3ccc4[nH]c(-c5ccc(OC)c(OC)c5)c(C(C)C)c4c3)CC2)CC1 (stereo not shown) [Example 38]
Result: II

Task: What about this molecule? COc1ccc(-c2[nH]c3ccc(N4CCC(N5CC(C)OC(C)C5)CC4)cc3c2C(C)C)cc1OC (stereo not shown)
Result: II

Task: What about this molecule? CC(C)c1c(-c2ccnc3[nH]ccc23)[nH]c2ccc(N3CCN(C4CCN(C(C)C)CC4)CC3)cc12
Result: I

Task: What about this molecule? CC(C)c1c(-c2ccnc3[nH]ncc23)[nH]c2ccc(NC(=O)[C@H]3CCNC3)cc12
Result: II

Task: What about this molecule? Cc1c(-c2ccnc3[nH]ccc23)[nH]c2ccc(N3CCN(C4CCN(C(C)C)CC4)CC3)cc12
Result: III

Task: What about this molecule? CCc1c(-c2ccc(OC)c(OC)c2)[nH]c2ccc(N3CCN(CCNC)CC3(C)C)cc12
Result: II

Task: What about this molecule? COc1ccc(-c2[nH]c3ccc(NC(=O)[C@H](N)CC(C)C)cc3c2C(C)C)cc1OC
Result: III

Task: What about this molecule? CCc1c(-c2ccc(OC)c(OC)c2)[nH]c2ccc(N3CCC(OC4CCN(C(C)C)CC4)CC3)cc12
Result: II

Task: What about this molecule? COc1ccc(-c2[nH]c3ccc(NC4CCC(N(C)CCCN(C)C)CC4)cc3c2C(C)C)cc1OC (stereo not shown) [Example 43]
Result: II

Task: What about this molecule? CCc1c(-c2ccc(OC)c(OC)c2)[nH]c2ccc(N3CCCN(C4CCN(C(C)C)CC4)CC3)cc12
Result: III

Task: What about this molecule? CCc1c(-c2cc(OC)nc(OC)c2)[nH]c2ccc(N3CCN(C4CCN(C(C)C)CC4)CC3)cc12
Result: I

Task: What about this molecule? COc1ccc(-c2[nH]c3ccc(N4CCC(N5CCN(C(C)=O)CC5)CC4)cc3c2C(C)C)cc1OC
Result: II

Task: What about this molecule? CCc1c(-c2ccc(OC)c(OC)c2)[nH]c2ccc(N3CCCN(CCNC)CC3)cc12
Result: III

Task: What about this molecule? CNCCN1CCN(c2ccc3[nH]c(-c4ccnc5[nH]ccc45)c(C(C)C)c3c2)CC1
Result: I

Task: What about this molecule? COc1ccc(-c2[nH]c3ccc(N4CCN(C5CC(C)(C)NC(C)(C)C5)CC4)cc3c2C(C)C)cc1OC
Result: I

Task: What about this molecule? COc1ccc(-c2[nH]c3ccc(NC4CCC(N5CCN(CC(C)C)CC5)CC4)cc3c2C(C)C)cc1OC (stereo not shown) [Example 51]
Result: III

Task: What about this molecule? COc1ccc(-c2[nH]c3ccc(N4CCC(N(C)CCCN(C)C)CC4)cc3c2C(C)C)cc1OC
Result: I

Task: What about this molecule? CCc1c(-c2ccc(OC)c(OC)c2)[nH]c2cc(C)c(N3CCN(CCNC)CC3)cc12
Result: I

----------
target: human TLR7 (Homo sapiens); experiment: TLR7 inhibition reporter assay (HEK-Blue SEAP reporter); conditions: HEK-Blue cells overexpressing human TLR7; gardiquimod 7.5 μM; 22 hour incubation
measurement name: pIC50
Remember the convention: pIC50 equals -log10 of concentration in molar.

Task: Form entry - test system: human TLR7 (Homo sapiens); read-out: pIC50; compound: CC(C)c1c(-c2ccnc3[nH]ncc23)[nH]c2ccc(N3CCN(C4CCN(C(C)C)CC4)CC3)cc12 [Example 167]
Result: 5.29

Task: What about this compound? COc1ccc(-c2[nH]c3ccc(N4CC5CCCNC5C4)cc3c2C(C)C)cc1OC (centres unmarked)
Result: 6.11

Task: What about this compound? CCc1c(-c2ccnc3[nH]ccc23)[nH]c2ccc(N3CCN(C4CCN(C(C)C)CC4)CC3)cc12
Result: 5.37

Task: What about this compound? CC(C)c1c(-c2ccnc3[nH]ccc23)[nH]c2ccc(N3CCNCC3)cc12
Result: 8.64

Task: What about this compound? COc1ccc(-c2[nH]c3ccc(NC4CCC(N5CCN(CCCN6CCCC6)CC5)CC4)cc3c2C(C)C)cc1OC (centres unmarked)
Result: 6.49

Task: What about this compound? CNCCNC1CCC(Nc2ccc3[nH]c(-c4ccc(OC)c(OC)c4)c(C(C)C)c3c2)CC1 (single isomer, unassigned) [Example 30]
Result: 6.36

Task: What about this compound? Cc1c(-c2ccnc3[nH]ccc23)[nH]c2ccc(N3CCN(C4CCN(CC(C)C)CC4)CC3)cc12
Result: 4.90

Task: What about this compound? CCc1c(-c2ccc(OC)c(OC)c2)[nH]c2ccc(N(CC)C3CCN(C4CCN(C)CC4)CC3)cc12
Result: 5.65

----------
Target: human TLR7 (Homo sapiens, UniProt Q9NYK1)
Test: TLR7 inhibition reporter assay (HEK-Blue SEAP reporter)
Settings: HEK-Blue cells overexpressing human TLR7; gardiquimod 7.5 μM; 22 hour incubation
Source text: TLR7/8/9 Inhibition Reporter Assays HEK-Blue™-cells (Invivogen) overexpressing human TLR7, TLR8 or TLR9 receptors were used for screening inhibitors of these receptors using an inducible SEAP (secreted embryonic alkaline phosphatase) reporter gene under the control of the IFN-β minimal promoter fused to five NF-κB and AP-1-binding sites. […]
measurement name: IC50 (nM)
Give the value in nM but do not write nM after it.

Task: # get_value(readout='IC50', item= COc1ccc(-c2[nH]c3ccc(N4CCC(N5CCN(Cc6ccc(C)cc6)CC5)CC4)cc3c2C(C)C)cc1OC )
Result: 1350

Task: What about this molecule? COc1ccc(-c2[nH]c3ccc(N4CCC(NCCN5CCOCC5)CC4)cc3c2C(C)C)cc1OC
Result: 41

Task: What about this molecule? COc1ccc(-c2[nH]c3ccc(N4CCC(NCCCN(C)C)CC4)cc3c2C(C)C)cc1OC [Example 77]
Result: 61

Task: What about this molecule? CCc1c(-c2ccc(OC)c(OC)c2)[nH]c2ccc(N3CCC(OC4CCNCC4)CC3)cc12
Result: 250

Task: What about this molecule? COc1ccc(-c2[nH]c3ccc(N4CCC(N5CC(O)CC5=O)CC4)cc3c2C(C)C)cc1OC (centres unmarked)
Result: 936

Task: What about this molecule? COc1ccc(-c2[nH]c3ccc(NC4CCC(N5CCN(c6ccncc6)CC5)CC4)cc3c2C(C)C)cc1OC (centres unmarked) [Example 60]
Result: 153

Task: What about this molecule? COc1ccc(-c2[nH]c3ccc(NC4CCC(N5CCN(Cc6ccc(C)cc6)CC5)CC4)cc3c2C(C)C)cc1OC (centres unmarked) [Example 65]
Result: 1180

Task: What about this molecule? COc1ccc(-c2[nH]c3ccc(NC(=O)C4CCNC4)cc3c2C(C)C)cc1OC (centres unmarked)
Result: 51

Task: What about this molecule? COc1ccc(-c2[nH]c3ccc(NC4CCC(N5CCN(c6ccncc6)CC5)CC4)cc3c2C(C)C)cc1OC (centres unmarked) [Example 59]
Result: 196

Task: What about this molecule? COc1ccc(-c2[nH]c3ccc(NC4CCC(N5CCN(CCN6CCCC6)CC5)CC4)cc3c2C(C)C)cc1OC (centres unmarked) [Example 63]
Result: 257

Task: What about this molecule? CCc1c(-c2ccc(OC)c(OC)c2)[nH]c2ccc(N3CCN(C4CCN(C)CC4)CC3)cc12
Result: 79

Task: What about this molecule? COc1ccc(-c2[nH]c3ccc(Nc4ccc(OCCN5CCCC5)cc4)cc3c2C(C)C)cc1OC
Result: 1400

Task: What about this molecule? COc1ccc(-c2[nH]c3ccc(NC(=O)[C@@H](N)CC(N)=O)cc3c2C(C)C)cc1OC
Result: 280

Task: What about this molecule? CCc1c(-c2cc(OC)nc(OC)c2)[nH]c2ccc(N3CCN(C4CCN(C)CC4)CC3)cc12
Result: 52

Task: What about this molecule? COc1ccc(-c2[nH]c3ccc(N4CCC(NC5CCN(C)CC5)CC4)cc3c2C(C)C)cc1OC
Result: 9.8

Task: What about this molecule? COc1ccc(-c2[nH]c3ccc(NC4CCC(NCCN(C)C)CC4)cc3c2C(C)C)cc1OC (centres unmarked) [Example 32]
Result: 191

Task: What about this molecule? CCc1c(-c2ccc(OC)c(OC)c2)[nH]c2ccc(N3CCN(C4CCN(C(C)C)CC4)CC3)cc12
Result: 61

Task: What about this molecule? COc1ccc(-c2[nH]c3ccc(NC4CCC(N5CCC(N(C)C)CC5)CC4)cc3c2C(C)C)cc1OC (centres unmarked)
Result: 1050

Task: What about this molecule? COc1ccc(-c2[nH]c3ccc(NC(=O)[C@@H]4CCCC[C@@H]4N)cc3c2C(C)C)cc1OC
Result: 128

Task: What about this molecule? COc1ccc(-c2[nH]c3ccc(N4CCC(N)(CC#N)CC4)cc3c2C(C)C)cc1OC
Result: 28

Task: What about this molecule? COc1ccc(-c2[nH]c3ccc(N4CCN(C5CCN(CC(C)C)CC5)CC4)cc3c2C)cc1OC
Result: 19100

Task: What about this molecule? CCN1CCC(N2CCN(c3ccc4[nH]c(-c5ccnc6[nH]ccc56)c(C)c4c3)CC2)CC1
Result: 2460

Task: What about this molecule? CCc1c(-c2ccnc(C)c2)[nH]c2ccc(N3CCN(C4CCN(C)CC4)CC3)cc12
Result: 2760

Task: What about this molecule? CNCCNC1CCN(c2ccc3[nH]c(-c4ccc(OC)c(OC)c4)c(C(C)C)c3c2)CC1
Result: 15

Task: What about this molecule? COc1ccc(-c2[nH]c3ccc(NC4CCC(N5CCN(C(C)(C)C)CC5)CC4)cc3c2C(C)C)cc1OC (centres unmarked) [Example 49]
Result: 538
